FYI, the data here is from PubChem BioAssay (NCI).

- Test system: SK-MEL-5 melanoma
- method notes: NCI-60 one-dose screen, 48 h (100 = growth as untreated, 0 = no growth, -100 = all killed)
- details: 10 µM unless noted
This is part of a sample that, as a whole, favours compounds with a hit. Of some 83,000 tested, about 20% had one in any assay.
Quick list: growth per entry.
readout label: growth (%)

1. Cc1ccc(NC(=O)Nc2ccc(-c3cccnc3)cc2N2CCC(CO)CC2)cc1 = -46.1
2. O=[N+]([O-])c1ccc(N/N=C/c2c(O)ccc3ccccc23)nc1 = 40
3. COC(=O)CCC1=C(CC(=O)OC)C(C)=N/C1=C\c1[nH]c(-c2ccc[nH]2)cc1OC = -22.7
4. N#Cc1cccc(/C=C(/C(=O)c2ccccc2)c2ccccc2)c1 = 49.3
5. CN(C(=O)c1ccccc1)N(C)C(=O)c1ccccc1 = 108
6. COc1ccc(-c2csc(NC(=O)c3cc(O)c(O)c(O)c3)n2)cc1 = 51
7. CC1=C(C(=O)Nc2ccccc2)C(c2ccc3c(c2)OCCO3)NC(=O)N1 (configuration not stated) = 101

###

- Tested on: MDA-MB-231 breast
- method notes: NCI-60 one-dose screen, 48 h (100 = growth as untreated, 0 = no growth, -100 = all killed)
- details: 10 µM unless noted
Compounds without any hit were thinned out: in the full panel of roughly 83,000, 20% have a hit.
readout label: growth (%)

1) COc1cc(/C=C2\COc3ccc(O)cc3C2=O)cc(OC)c1 = 77
2) CCCCCCCCCCCCCCCCCc1nccn1CCO = 69.6
3) COc1cc(Oc2cc(-c3cccnc3)ccc2NC(=O)Nc2ccc(F)cc2F)cc(OC)c1OC = 91.5

###

- System: HCT-116 colon
- method notes: NCI-60 one-dose screen, 48 h
- details: 10 µM unless noted
About 83,000 compounds went through this panel and 20% of them were active in at least one assay; those are over-represented in the sample as a whole. Calls of active or inactive are those of the source. Rule for the calls: active = growth percent below 10; inactive = the rest.
Outcome codes: 1 for active, 0 for inactive

1. O=C(Nc1cccc(-n2cc(-c3ccncc3)c(-c3ccc(O)c(Cl)c3)n2)c1)Nc1ccc(Cl)c(C(F)(F)F)c1 = 1
2. O=C(O)c1ccc(NC(=O)c2ccc(Nc3ccnc(C(F)(F)F)c3)cc2)cc1 = 0
3. Cc1cc(NC(=O)c2ccc(N)cc2)ccc1N=Nc1ccc2c(O)c(N=Nc3ccc(Cl)c(S(=O)(=O)O)c3)c(S(=O)(=O)O)cc2c1 = 0
4. COC(=O)[C@]1(CCSC)N[C@H](c2cn(-c3ccccc3)nc2C)[C@@H]2C(=O)N(c3ccccc3)C(=O)[C@@H]21 = 0
5. CC(C)(C)c1ccc(C(O)CCCN2CCC(C(O)(c3ccccc3)c3ccccc3)CC2)cc1 (stereo not given) = 1
6. N#Cc1cnc2cc(OC[C@H](O)CO)c(NC(=O)CC3CSSC3)cc2c1Nc1ccc(OCc2cccc(F)c2)c(Cl)c1 = 1
7. NC(=Nc1ccccc1)SCCCCSC(N)=Nc1ccccc1 = 0
8. ClC1=C(Cl)C(Cl)=C(Cl)C1=C/C=C/c1ccccc1 = 1
9. CCCC[N+](CCCC)=c1ccc2nc3c(C)cc(N(CC)CC)cc3sc-2c1 = 1
10. COc1cc(/C=C2\COc3ccc(O)cc3C2=O)cc(OC)c1 = 1
11. O=C(N1CCC(CN=c2cc3n(-c4ccc(Cl)cc4)c4ccccc4nc-3cc2Nc2ccc(Cl)cc2)CC1)N1CC1 = 1
12. COc1ccc(/C=C/C(=O)Nc2cccnc2Nc2ccc(F)cc2)cc1 = 0
13. CC[N+](C)(CC)CCCC(C)Nc1ccnc2cc(Cl)ccc12 (stereo not given) = 0
14. CO[C@H]1/C=C/O[C@@]2(C)Oc3c(C)c(O)c4c(O)c(c(/C=N/N5CCN(C)CC5)c(O)c4c3C2=O)NC(=O)/C(C)=C\C=C\C(C)[C@H](O)[C@@H](C)[C@@H](O)[C@@H](C)[C@@H](OC(C)=O)[C@@H]1C (stereo not given in full) = 0
15. CCCCCCCC/C=C/CCCCCCCC1=NC(C)(C)CN1CC(C)O (stereo not given) = 1
16. CCCCCCC/C(=N\N=C(N)N)c1ccc(O)cc1 = 0
17. Clc1cc(Cl)c(OCC#CI)cc1Cl = 1
18. NC(N)=NC(N)=NCCCc1ccccc1 = 0
19. Cn1cc(-c2csc(-c3cn(C)c4ncccc34)n2)c2cc(Br)cnc21 = 0
20. CCn1c2c(c3ccccc31)SC1c3cccn3CCN1C2=S (stereo not given) = 0
21. COc1ccccc1[C@H]1c2[nH]c3ccccc3c2C[C@H]2C(=O)N(CCCCCCC(=O)NO)CC(=O)N12 = 0
22. Fc1ccc([C@@H]2CCNC[C@H]2COc2ccc3c(c2)OCO3)cc1 = 0
23. Cc1cc2cn3c4cccnc4[nH]c(=O)c3c2cc1C = 1
24. O=C1OCC/C1=C\OCCCO/C=C1\CCOC1=O = 0
25. Cc1cc(C)n2nc(SCC(=O)Nc3sc4c(c3C(N)=O)CCC4)nc2n1 = 0
26. CCOC(=O)c1c(C)nc(C)c(C(=O)OCC)c1-c1cccnc1 = 0
27. O=C(c1ccccc1)c1ccccc1Cl = 0
28. O=C1CCCN1C1CCN(Cc2cc3ccccc3[nH]c2=O)c2ccccc21 (stereo not given) = 0
29. N#CCNc1ccccc1N = 0
30. O=C1CN(CO)C(=O)CN1CO = 0
